Data credit: paper PMC9495854

Each entry below carries its recorded IC50 at 24 h.
Experiment: MTT cell viability assay, SH-SY5Y
Assay type: cell-based
Details: human, SH-SY5Y cells; SHSY-5Y, 24 h exposure; read-out: MTT cytotoxicity IC50 ± SEM SHSY-5Y 24 h
Experimental: Human hepatocellular liver carcinoma (HepG2) cell line and human neuroblastoma cell line, SH-SY5Y, were purchased from the American Type Culture Collection (ATCC, Manassas, VA, USA) and maintained at 37 °C in a humidified atmosphere (95% air and 5% carbon dioxide), and they were periodically screened for contamination. […] HepG2 and SH-SY5Y cell viability was assessed as previously reported by using a conventional 3-(4,5-dimethylthiazol-2-yl)-2,5-diphenyltetrazolium bromide (MTT) assay. […]
Only the number, expressed in µM, is required.

Please review the following examples before continuing.
CC(=O)N1c2ccccc2Sc2ccc(C(=O)NCCN3CCN(Cc4ccccc4Cl)CC3)cc21 | 55.3
O=C(NCCN1CCN(Cc2ccccc2Cl)CC1)c1ccc2c(c1)Nc1ccccc1S2 [Compound 12b] | 31.8
O=C(NCC1CCN(Cc2ccccc2F)CC1)c1ccc2c(c1)Nc1ccccc1S2 [Compound 11d] | 9.33
Cc1ccccc1CN1CCC(CNC(=O)c2ccc3c(c2)Nc2ccccc2S3)CC1 [Compound 11c] | 15.2
COc1cccc(CN2CCC(CNC(=O)c3ccc4c(c3)Nc3ccccc3S4)CC2)c1 [Compound 11e] | 29

Next item in the queue.
Task item: Reported IC50 at 24 h for O=C(NCC1CCN(Cc2ccccc2Cl)CC1)c1ccc2c(c1)Nc1ccccc1S2 [Compound 11b] : what is it?
Reply: 21.2

----------
Molecular target: FAAH Human recombinant (Homo sapiens, UniProt O00519)
Sequence (O00519 1-579): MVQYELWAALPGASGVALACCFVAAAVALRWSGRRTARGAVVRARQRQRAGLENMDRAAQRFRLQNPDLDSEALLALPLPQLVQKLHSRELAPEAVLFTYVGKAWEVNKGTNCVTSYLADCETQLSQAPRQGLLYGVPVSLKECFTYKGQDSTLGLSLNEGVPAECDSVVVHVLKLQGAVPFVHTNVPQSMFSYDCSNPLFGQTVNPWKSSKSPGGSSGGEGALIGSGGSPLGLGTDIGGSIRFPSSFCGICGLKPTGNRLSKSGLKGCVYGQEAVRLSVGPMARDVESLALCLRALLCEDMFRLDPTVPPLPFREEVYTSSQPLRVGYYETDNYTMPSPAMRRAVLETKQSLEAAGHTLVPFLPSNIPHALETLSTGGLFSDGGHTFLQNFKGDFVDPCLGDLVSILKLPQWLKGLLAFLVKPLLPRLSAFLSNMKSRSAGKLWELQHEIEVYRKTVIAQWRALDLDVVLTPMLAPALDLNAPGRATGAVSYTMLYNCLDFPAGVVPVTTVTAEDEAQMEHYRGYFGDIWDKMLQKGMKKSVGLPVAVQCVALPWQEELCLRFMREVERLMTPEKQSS
Assay: FAAH inhibition, fluorometric assay
Details: mean ± SEM; read-out: hFAAH (IC50)
pIC50: −log10 of the molar value.
Please note: satisfied applies when pIC50 is 5 or greater, and not satisfied applies otherwise.

O=C(Oc1ccc([N+](=O)[O-])cc1)N1CCN(Cc2cccc(Oc3ccccc3)c2)CC1 [JZL195, reference compound] | satisfied
O=C(NCC1CCN(Cc2ccccc2Cl)CC1)c1ccc2c(c1)Nc1ccccc1S2 [Compound 11b] | satisfied
O=C(NCC1CCN(Cc2ccccc2)CC1)c1ccc2c(c1)Nc1ccccc1S2 [Compound 11a] | not satisfied

Task item: I'd appreciate it if you could say whether O=C(NCCN1CCN(Cc2ccccc2)CC1)c1ccc2c(c1)Nc1ccccc1S2 [Compound 12a] has pIC50 at least equal to 5.
Reply: not satisfied
